In this section we review reported GI50 values for a set of molecules.
biological target: BaF3 V617F cells (Homo sapiens, UniProt O60674, V617F, cells depend on it); test: Proliferation assay, BaF3 V617F cells (Cell Titer-Glo); type: cell-based, mouse; details: proliferation for 72 hours at 37° C., stated to show ability to inhibit JAK2 activity, read-out: IC50 (the source's name)
Sequence (O60674 whole entry V617F): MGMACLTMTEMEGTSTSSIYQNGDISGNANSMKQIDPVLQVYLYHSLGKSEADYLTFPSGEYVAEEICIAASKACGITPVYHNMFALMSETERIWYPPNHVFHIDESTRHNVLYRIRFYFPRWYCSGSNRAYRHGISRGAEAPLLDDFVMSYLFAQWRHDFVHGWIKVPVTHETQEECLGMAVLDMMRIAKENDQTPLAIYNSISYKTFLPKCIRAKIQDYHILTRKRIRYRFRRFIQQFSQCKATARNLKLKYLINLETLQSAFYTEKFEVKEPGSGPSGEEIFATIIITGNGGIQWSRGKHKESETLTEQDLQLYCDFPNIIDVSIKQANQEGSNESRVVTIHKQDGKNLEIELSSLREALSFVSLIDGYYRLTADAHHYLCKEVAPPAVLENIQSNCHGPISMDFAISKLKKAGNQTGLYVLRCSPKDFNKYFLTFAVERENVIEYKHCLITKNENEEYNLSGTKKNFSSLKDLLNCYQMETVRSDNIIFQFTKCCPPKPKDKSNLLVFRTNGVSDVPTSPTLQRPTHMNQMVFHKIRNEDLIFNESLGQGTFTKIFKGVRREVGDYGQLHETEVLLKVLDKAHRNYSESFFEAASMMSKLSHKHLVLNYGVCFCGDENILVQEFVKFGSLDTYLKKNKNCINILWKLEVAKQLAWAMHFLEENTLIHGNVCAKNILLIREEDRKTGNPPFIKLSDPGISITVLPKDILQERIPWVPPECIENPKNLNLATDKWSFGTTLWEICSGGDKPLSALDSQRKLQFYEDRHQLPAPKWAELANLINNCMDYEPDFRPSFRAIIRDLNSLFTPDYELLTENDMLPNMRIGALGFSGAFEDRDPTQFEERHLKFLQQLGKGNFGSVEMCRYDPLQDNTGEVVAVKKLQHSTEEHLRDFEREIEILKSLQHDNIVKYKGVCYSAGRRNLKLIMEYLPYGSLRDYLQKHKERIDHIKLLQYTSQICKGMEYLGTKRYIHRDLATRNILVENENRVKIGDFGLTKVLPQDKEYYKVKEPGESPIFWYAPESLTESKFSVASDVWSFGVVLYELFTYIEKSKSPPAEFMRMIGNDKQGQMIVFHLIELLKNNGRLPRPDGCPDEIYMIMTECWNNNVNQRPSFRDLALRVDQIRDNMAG

Molecule | System Tested | GI50
Cc1cnc(Nc2ccc3c(c2)[C@@H]2NC(=O)O[C@@H]2C3)nc1Nc1cccc2c1CCCC2 [Compound 22] | BaF3 V617F cells (Homo sapiens, UniProt O60674, V617F, cells depend on it) | 250 to 500 nM
Cc1cnc(Nc2ccc3c(c2)[C@@H]2NC(=O)O[C@@H]2C3)nc1Nc1ccc(OCc2ccccn2)cc1 [Compound 28] | BaF3 V617F cells (Homo sapiens, UniProt O60674, V617F, cells depend on it) | 250 to 500 nM
O=C1N[C@@H]2c3cc(Nc4ncc(Cl)c(Nc5ccc(CNS(=O)(=O)C6CC6)cc5)n4)ccc3C[C@@H]2O1 [Compound 8] | BaF3 V617F cells (Homo sapiens, UniProt O60674, V617F, cells depend on it) | < 250 nM
O=C1N[C@H]2c3cc(Nc4ncc(Cl)c(Nc5cccc6c5CCCC6)n4)ccc3C[C@H]2O1 [Compound 21] | BaF3 V617F cells (Homo sapiens, UniProt O60674, V617F, cells depend on it) | 500 to 1000 nM
Cc1cnc(Nc2ccc3c(c2)[C@@H]2NC(=O)O[C@@H]2C3)nc1Nc1cccc2c1OCCO2 [Compound 24] | BaF3 V617F cells (Homo sapiens, UniProt O60674, V617F, cells depend on it) | < 250 nM
O=C1N[C@H]2c3cc(Nc4ncc(Cl)c(Nc5ccc(CNS(=O)(=O)C6CC6)cc5)n4)ccc3C[C@H]2O1 [Compound 16] | BaF3 V617F cells (Homo sapiens, UniProt O60674, V617F, cells depend on it) | 1000 to 5000 nM
O=C1N[C@@H]2c3cc(Nc4ncc(Cl)c(Nc5cccc6c5CCCC6)n4)ccc3C[C@@H]2O1 [Compound 36] | BaF3 V617F cells (Homo sapiens, UniProt O60674, V617F, cells depend on it) | 250 to 500 nM
CCN1C(=O)C(C)(C)Oc2ccc(Nc3nc(Nc4ccc5c(c4)[C@@H]4NC(=O)O[C@@H]4C5)ncc3Cl)cc21 [Compound 12] | BaF3 V617F cells (Homo sapiens, UniProt O60674, V617F, cells depend on it) | 250 to 500 nM
Cc1cnc(Nc2ccc3c(c2)[C@H]2NC(=O)CO[C@H]2C3)nc1Nc1ccc2c(c1)N(C)C(=O)C(C)(C)O2 [Compound 38] | BaF3 V617F cells (Homo sapiens, UniProt O60674, V617F, cells depend on it) | 250 to 500 nM
O=C1N[C@@H]2c3cc(Nc4ncc(Cl)c(Nc5ccc(CCNS(=O)(=O)C6CC6)cc5)n4)ccc3C[C@@H]2O1 [Compound 1] | BaF3 V617F cells (Homo sapiens, UniProt O60674, V617F, cells depend on it) | 1000 to 5000 nM
Cc1cnc(Nc2ccc3c(c2)[C@@H]2NC(=O)O[C@@H]2C3)nc1Nc1cccc2c1CCC2 [Compound 20] | BaF3 V617F cells (Homo sapiens, UniProt O60674, V617F, cells depend on it) | < 250 nM
Cc1cnc(Nc2ccc3c(c2)[C@H]2NC(=O)O[C@H]2C3)nc1Nc1cccc2c1CCC2 [Compound 35] | BaF3 V617F cells (Homo sapiens, UniProt O60674, V617F, cells depend on it) | < 250 nM
Cc1cnc(Nc2ccc3c(c2)[C@H]2NC(=O)O[C@H]2C3)nc1Nc1ccc2c(c1)N(C)C(=O)C(C)(C)S2 [Compound 7] | BaF3 V617F cells (Homo sapiens, UniProt O60674, V617F, cells depend on it) | < 250 nM
O=C1N[C@H]2c3cc(Nc4ncc(Cl)c(Nc5cccc6c5CCC6)n4)ccc3CC2O1 (stereo partly drawn) [Compound 19] | BaF3 V617F cells (Homo sapiens, UniProt O60674, V617F, cells depend on it) | ≥ 5000 nM
Cc1cnc(Nc2ccc3c(c2)[C@H]2NC(=O)O[C@H]2C3)nc1Nc1ccc(OCc2cccnc2)cc1 [Compound 31] | BaF3 V617F cells (Homo sapiens, UniProt O60674, V617F, cells depend on it) | 250 to 500 nM

---

biological target: BaF3 V617F cells (Homo sapiens, UniProt O60674, V617F, cells depend on it); assay: Proliferation assay, BaF3 V617F cells (Cell Titer-Glo); assay type: cell-based, mouse; conditions: proliferation for 72 hours at 37° C., stated to show ability to inhibit JAK2 activity, read-out: IC50 (the source's name)

Chemical Structure | GI50
Cc1cnc(Nc2ccc3c(c2)[C@@H]2NC(=O)O[C@@H]2C3)nc1Nc1ccc2c(c1)NC(=O)C(C)(C)O2 | 1000 to 5000 nM
Cc1cnc(Nc2ccc3c(c2)[C@@H]2NC(=O)O[C@@H]2C3)nc1Nc1ccc(CNS(=O)(=O)C2CC2)cc1 | 1000 to 5000 nM
CCN1C(=O)C(C)(C)Oc2ccc(Nc3nc(Nc4ccc5c(c4)[C@@H]4NC(=O)O[C@@H]4C5)ncc3C)cc21 | 250 to 500 nM
O=C1N[C@@H]2c3cc(Nc4ncc(F)c(Nc5ccc(OCc6ccccn6)cc5)n4)ccc3C[C@@H]2O1 | 1000 to 5000 nM

Source: patent US8846908B2
